# experimental.protocol: migration of stabiliser from PVC bottles into water at 50° C.
# Format: physicochemical
# protocol.conditions: water 50° C.; 0.15 pct; 2 months
reported.property: Migration

| chemical.string | reported.measurement |
| --- | --- |
| CCCCCCCCCCCCCCCCCCOC(=O)C1=C(C)NC(C)=C(C(=O)OCCCCCCCCCCCCCCCCCC)C1 | < 5 µg/L |

Request: Please look up its Migration: CCOC(=O)C1=C(C)NC(C)=C(C(=O)OCC)C1
Result: 100 µg/L

Request: Please look up its Migration: CCCCCCCCCCCCCCOC(=O)C1=C(C)NC(C)=C(C(=O)OCCCCCCCCCCCCCC)C1
Result: < 5 µg/L

Request: Please look up its Migration: CCCCOC(=O)C1=C(C)NC(C)=C(C(=O)OCCCC)C1
Result: 100 µg/L

Request: Please look up its Migration: COC(=O)C1=C(C)NC(C)=C(C(=O)OC)C1
Result: 80 µg/L

Request: Please look up its Migration: CCCCCCCCCCCCOC(=O)C1=C(C)NC(C)=C(C(=O)OCCCCCCCCCCCC)C1
Result: < 5 µg/L

====

# experimental.protocol: migration of stabiliser from PVC bottles into water at 50° C.
# Format: physicochemical
# protocol.conditions: water 50° C.; 0.30 pct; 1 month
reported.property: Migration (µg/L)
Dear colleague, please return just the value in µg/L, with no unit written.

// worked examples, Migration included
| chemical.string | Migration / µg/L |
| --- | --- |
| CCCCOC(=O)C1=C(C)NC(C)=C(C(=O)OCCCC)C1 | 130 |
| CCOC(=O)C1=C(C)NC(C)=C(C(=O)OCC)C1 | 150 |

From here, focus on the item given below.
Request: Please look up its Migration: COC(=O)C1=C(C)NC(C)=C(C(=O)OC)C1
Result: 120

====

# experimental.protocol: polarographic study of the oxidation potential (Example 30)
# Format: physicochemical
# protocol.conditions: acetonitrile, lithium perchlorate; calomel electrode; in V (unit assumed)
reported.property: Oxidation potential
Simply state the number, no unit and no words.

// worked examples, Oxidation potential included
| compound | Oxidation potential |
| --- | --- |
| COc1ccc(O)cc1 [4-Methoxy phenol] | 0.89 |
| Oc1ccc(O)cc1 [Hydroquinone] | 0.83 |
| COC(=O)C1=C(C)NC(C)=C(C(=O)OC)C1 [L.28504] | 0.74 |
| Cc1cc(C(C)(C)C)c(O)c(C(C)(C)C)c1 [BHT, Di-tert.-2,6-butyl-4-methyl phenol, reference compound] | 1.11 |

From here, focus on the item given below.
Request: Please look up its Oxidation potential: CCOC(=O)C1=C(C)NC(C)=C(C(=O)OCC)C1 [L.28501]
Result: 0.73

====

Reported Migration by item:
# experimental.protocol: migration of stabiliser from PVC bottles into water at 50° C.
# Type: physicochemical
# protocol.conditions: water 50° C.; 0.15 pct; 20 days
Dear colleague, please return just the value in µg/L, with no unit written.

| molecule | units.label | Migration |
| --- | --- | --- |
| COC(=O)C1=C(C)NC(C)=C(C(=O)OC)C1 [L.28504] | µg/L | 40 |

Request: Please look up its Migration: CCCCOC(=O)C1=C(C)NC(C)=C(C(=O)OCCCC)C1 [L.28552]
Result: 40

Request: Please look up its Migration: CCOC(=O)C1=C(C)NC(C)=C(C(=O)OCC)C1 [L.28501]
Result: 50

====

# experimental.protocol: polarographic oxidation potential (Example 31)
# Type: physicochemical
# protocol.conditions: 0.5 m.mole/liter; methanol/acetic acid; 35° C.
reported.property: Oxidation potential (millivolts)
Dear colleague, please return just the value in millivolts, with no unit written.

// worked examples, Oxidation potential included
| compound | Oxidation potential [millivolts] |
| --- | --- |
| Cc1cc(C(C)(C)C)c(O)c(C(C)(C)C)c1 [BHT, Di-tert.-2,6-butyl-4-methyl phenol, reference compound] | 1163 |
| CCCCCCCC/C=C\CCCCCCCCOC(=O)C1=C(C)NC(C)=C(C(=O)OCCCCCCCC/C=C\CCCCCCCC)C1 [L.28602] | 808 |
| CCCCCCCCCCCCCCOC(=O)C1=C(C)NC(C)=C(C(=O)OCCCCCCCCCCCCCC)C1 [L.28590] | 732 |
| COC(=O)C1=C(C)NC(C)=C(C(=O)OC)C1 [L.28504] | 850 |

From here, focus on the item given below.
Request: Please look up its Oxidation potential: CCCCCCCCCCCCOC(=O)C1=C(C)NC(C)=C(C(=O)OCCCCCCCCCCCC)C1 [L.28507]
Result: 783

====

# experimental.protocol: migration of stabiliser from PVC bottles into water at 50° C.
# Assay type: physicochemical
# protocol.conditions: water 50° C.; 0.30 pct; 20 days
reported.property: Migration (µg/L)
Dear colleague, please return just the value in µg/L, with no unit written.

| compound | reported.property | units.label | reported.measurement |
| --- | --- | --- | --- |
| COC(=O)C1=C(C)NC(C)=C(C(=O)OC)C1 [L.28504] | Migration | µg/L | 100 |

Request: Please look up its Migration: CCOC(=O)C1=C(C)NC(C)=C(C(=O)OCC)C1 [L.28501]
Result: 120

Request: Please look up its Migration: CCCCOC(=O)C1=C(C)NC(C)=C(C(=O)OCCCC)C1 [L.28552]
Result: 120

====

# experimental.protocol: sublimation at 160° C. for 6 hours under nitrogen
# Format: physicochemical
# protocol.conditions: 160° C., 6 hours, nitrogen
Reported % of sublimed product by item:
Dear colleague, please return just the value in %, with no unit written.

| compound | reported.property | reported.measurement |
| --- | --- | --- |
| CCCCCCCCCCCCCCCCCCCCCCOC(=O)C1=C(C)NC(C)=C(C(=O)OCCCCCCCCCCCCCCCCCCCCCC)C1 | % of sublimed product | 0.4 |

Request: Please look up its % of sublimed product: c1ccc(-c2cc3ccccc3[nH]2)cc1 [2-phenyl indole, reference compound]
Result: 62

Request: Please look up its % of sublimed product: CCCCCCCCOC(=O)C1=C(C)NC(C)=C(C(=O)OCCCCCCCC)C1
Result: 7.2

====

# experimental.protocol: sublimation at 160° C. for 6 hours under nitrogen
# Format: physicochemical
# protocol.conditions: 160° C., 6 hours, nitrogen
Classification field: Satisfied = % of sublimed product at or over 30%; Not satisfied = % of sublimed product under 30%.

Some solved entries appear below for comparison.
| chemical.string | assigned.category |
| --- | --- |
| CCCCCCCCCCCCOC(=O)C1=C(C)NC(C)=C(C(=O)OCCCCCCCCCCCC)C1 | Not satisfied |
| CCOC(=O)C1=C(C)NC(C)=C(C(=O)OCC)C1 | Satisfied |
| CCCCCCCCCCOC(=O)C1=C(C)NC(C)=C(C(=O)OCCCCCCCCCC)C1 | Not satisfied |

Request: Exam item: decide whether the reported % of sublimed product for CCCCCCCCCCCCCCOC(=O)C1=C(C)NC(C)=C(C(=O)OCCCCCCCCCCCCCC)C1 is at least 30%.
Result: Not satisfied

====

# experimental.protocol: migration of stabiliser from PVC bottles into water at 50° C.
# Format: physicochemical
# protocol.conditions: water 50° C.; 0.30 pct; 2 months
reported.property: Migration

// worked examples, Migration included
| molecule | reported.measurement |
| --- | --- |
| CCCCCCCCCCCCOC(=O)C1=C(C)NC(C)=C(C(=O)OCCCCCCCCCCCC)C1 [L.28507] | < 5 µg/L |
| CCOC(=O)C1=C(C)NC(C)=C(C(=O)OCC)C1 [L.28501] | 150 µg/L |
| CCCCOC(=O)C1=C(C)NC(C)=C(C(=O)OCCCC)C1 [L.28552] | 130 µg/L |
| CCCCCCCCCCCCCCOC(=O)C1=C(C)NC(C)=C(C(=O)OCCCCCCCCCCCCCC)C1 [L.28590] | < 5 µg/L |
| COC(=O)C1=C(C)NC(C)=C(C(=O)OC)C1 [L.28504] | 120 µg/L |

From here, focus on the item given below.
Request: Please look up its Migration: CCCCCCCCCCCCCCCCCCOC(=O)C1=C(C)NC(C)=C(C(=O)OCCCCCCCCCCCCCCCCCC)C1 [L.28599]
Result: < 5 µg/L

====

# experimental.protocol: migration of stabiliser from PVC into solutions or solvents simulating foods at 50° C.
# Type: physicochemical
# protocol.conditions: H2O/NaCl (97:3); 0.3; 1 month
reported.property: Migration (µg/L)
Dear colleague, please return just the value in µg/L, with no unit written.

| compound | Migration [µg/L] |
| --- | --- |
| CCOC(=O)C1=C(C)NC(C)=C(C(=O)OCC)C1 [L.28501] | 120 |
| COC(=O)C1=C(C)NC(C)=C(C(=O)OC)C1 [L.28504] | 100 |
| c1ccc(-c2cc3ccccc3[nH]2)cc1 [2-phenyl indole, reference compound] | 90 |

From here, focus on the item given below.
Request: Please look up its Migration: CCCCOC(=O)C1=C(C)NC(C)=C(C(=O)OCCCC)C1 [L.28552]
Result: 80
